# credit: paper PMC5607274

target: human recombinant Yes [a.a. 2–543 (end)] (Homo sapiens, UniProt P07947); construct: human recombinant Yes [a.a; 2–543 (end)]; purchased BPS Bioscience 40488; test: ADP-Glo kinase assay, inhibition rates of Yes phosphorylation activity (first and second screening); assay type: biochemical; settings: first screening; mean of n = 4 wells; 10 μmol L−1 compound
Sequence (P07947 2-543): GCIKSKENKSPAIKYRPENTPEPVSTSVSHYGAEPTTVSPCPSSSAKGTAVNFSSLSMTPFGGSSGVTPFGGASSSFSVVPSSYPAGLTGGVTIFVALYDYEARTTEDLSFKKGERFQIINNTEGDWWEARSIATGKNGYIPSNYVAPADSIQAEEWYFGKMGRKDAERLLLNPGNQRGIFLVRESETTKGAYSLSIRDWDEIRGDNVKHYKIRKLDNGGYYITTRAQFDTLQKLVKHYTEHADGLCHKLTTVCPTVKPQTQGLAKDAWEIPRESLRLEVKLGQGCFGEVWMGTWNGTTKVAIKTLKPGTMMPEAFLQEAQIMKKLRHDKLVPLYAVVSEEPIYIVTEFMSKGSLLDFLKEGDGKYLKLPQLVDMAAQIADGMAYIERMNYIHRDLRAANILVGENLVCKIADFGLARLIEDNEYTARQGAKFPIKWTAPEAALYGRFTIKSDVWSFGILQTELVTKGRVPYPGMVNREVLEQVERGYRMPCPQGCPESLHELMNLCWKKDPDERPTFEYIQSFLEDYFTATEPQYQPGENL
This listing pairs compounds with measured First screening IR (inhibition rate).

The cases that follow already have their First screening IR (inhibition rate) on record.
compound: COc1cc(C(=O)NC(C)c2ccc(-n3ccnc3)cc2)cc(Cl)c1OC(C)C (stereo not shown)
experimental_readout: First screening IR (inhibition rate)
reported_measurement: 7%
--
compound: Cc1ccc(Oc2ccc(NC(=O)N3CCNC(=O)C3)cn2)cc1
experimental_readout: First screening IR (inhibition rate)
reported_measurement: -14%
--
compound: Oc1cncc(/C=C/c2nc(-c3ccncc3)no2)c1
experimental_readout: First screening IR (inhibition rate)
reported_measurement: 8%
--
compound: CC(C)(C)c1cc(-n2c(-c3cccnc3)nc3cc4c(cc32)OCCO4)cc(C(C)(C)C)c1O
experimental_readout: First screening IR (inhibition rate)
reported_measurement: 6%
--
compound: CCn1c(CSc2nnc(-c3sc(C)nc3C)o2)nc2cc(S(=O)(=O)N(C)C)ccc21
experimental_readout: First screening IR (inhibition rate)
reported_measurement: 49%
--
compound: CCn1ncc2c(C(=O)N(C)Cc3ccccc3)cc(-c3ccccc3)nc21
experimental_readout: First screening IR (inhibition rate)
reported_measurement: -16%

// moving on: another record for First screening IR (inhibition rate)
Provide value of First screening IR (inhibition rate) for this record tested with human recombinant Yes [a.a. 2–543 (end)] (Homo sapiens, UniProt P07947): "Cl.Fc1ccc(-c2nc3ccc(Cl)cc3c(-c3ccccc3)c2CCCl)cc1" 10%

----------
molecular target: human recombinant Yes [a.a. 2–543 (end)] (Homo sapiens, UniProt P07947); construct: human recombinant Yes [a.a; 2–543 (end)]; purchased BPS Bioscience 40488; assay: ADP-Glo kinase assay, inhibition rates of Yes phosphorylation activity (first and second screening); assay type: biochemical; details: first screening; mean of n = 4 wells; 10 μmol L−1 compound
Classification field: enter y for First screening IR (inhibition rate) values not below 10%, n for values below it.

compound: Cc1ccc(N2C(=O)Cc3c2nc(N)c2c(N)nc(N4CCCC4)c(C#N)c32)cc1C [Compound Z55589600]
qualitative_label: y
--
compound: CCn1cc(C(=O)c2cc(Cl)ccc2O)cc1-c1nc2ccccc2c(=O)[nH]1 [Compound Z135358570]
qualitative_label: n
--
compound: COc1ccccc1N1CCN(Cc2csc(NC(C)=O)n2)CC1 [Compound Z46164581]
qualitative_label: n
--
compound: COc1ccccc1-c1nnc(SCC(=O)c2ccc(NC(C)=O)cc2F)n1-c1ccccc1 [Compound Z51187459]
qualitative_label: n
--
compound: O=C(NCc1ccc(COCC(F)(F)F)cc1)c1ccc2nc[nH]c2c1 [Compound Z226277016]
qualitative_label: y

Quick check: does CC(C)(C)n1ncc2c(NCCc3nnc4n3CCCC4)ncnc21 [Compound Z1661117530] have First screening IR (inhibition rate) greater than or equal to 10%? n

Further, for CS(=O)(=O)c1ccccc1S(=O)(=O)N1CCCC1 [Compound Z285664942] ? n

Also Cc1ccc(Cn2nc(C)c(C(=O)OCc3nc(N)nc(Nc4ccccc4)n3)c2Cl)cc1 [Compound Z89857426] ? y

Try the compound O=C(Nc1cccc(S(=O)(=O)NC2=NCCCCC2)c1)C1(c2cccc(Cl)c2)CC1 [Compound Z316438002] y
